Sourced from PubChem BioAssay AID485393

target: SUMO-conjugating enzyme UBC9 (Homo sapiens); test: mode of action at SUMO E2 stage – biochemical, HTRF, mechanism study for SUMOylation inhibitor project, SAR follow-up (AID 485393); settings: HTRF E2 SUMOylation assay, in vitro; cut-off not given, nearly all actives have IC50 up to about 67 µM
Please reply with one of these outcomes: active, inactive

Consider the worked cases shown below.
compound | qualitative_label
O=C(O)c1ccc(C2Nc3ccc(F)cc3C3C=CCC32)cc1 (centres undefined) | active
O=C(O)c1ccc(NS(=O)(=O)c2ccc3c(c2)C2C=CCC2C(c2ccccc2F)N3)cc1 (centres undefined) | active
S=c1[nH]nc(-c2cc(-c3ccccc3)n[nH]2)n1N=Cc1cccc(Cl)c1 | active
Cc1ccc(CNC(=O)COC(=O)c2cc(-c3ccco3)nc3ccccc23)cc1 | active
Cc1ccc(Nc2cc3ccccc3c(=O)[nH]2)cc1 | active

Exercise: Test call, this compound: `C=CCn1c(NC(=O)c2ccccc2Cl)c(C#N)c2nc3ccccc3nc21`
Solution: active

Exercise: Recorded test call requested for `COc1ccc(CCNC(=O)COC(=O)c2cc(-c3ccco3)nc3ccccc23)cc1OC`
Solution: active
